- experiment: Inhibition of human full length […] gene fusion of J-PKAc alpha chimeric protein expressed in Escherichia coli BL21 (DE3) cells using CREB KRREILSRRPSYR-biotinylated peptide as substrate incubated for 45 mins in presence of ATP by ELISA
pIC50: −log10 of the molar value.
outcome measure: pIC50

[A] Cn1cnc(Br)c1C1=CN(c2ncnc3[nH]cnc23)CCS1
[B] Cn1cncc1C1=CN(c2ncnc3[nH]c(=O)[nH]c23)CCS1
Asked: Lower value of pIC50 belongs to which: A or B ? Indicate which entry you chose by stating its label.
Given back: B

---

- tested target: cAMP-dependent protein kinase catalytic subunit alpha (Homo sapiens, UniProt P17612)
- experiment: Inhibition of wild type PKAc alpha (unknown origin) using CREB KRREILSRRPSYR-biotinylated peptide as substrate incubated for 45 mins in presence of ATP by ELISA
outcome measure: IC50 (µM)

[P] Cn1cnc(Br)c1C1=CN(c2ncnc3[nH]cnc23)CCS1
[Q] Cn1cncc1C1=CN(c2ncnc3[nH]c(=O)[nH]c23)CCS1
Asked: Pick the one with the larger IC50: P vs Q In your reply, give the label of the chosen option.
Given back: Q
(Q: 90 µM, P: 1.1 µM)

---

Property: IC50; scope: individual compounds
- experiment: Inhibition of human full length […] gene fusion of J-PKAc alpha chimeric protein expressed in Escherichia coli BL21 (DE3) cells using CREB KRREILSRRPSYR-biotinylated peptide as substrate incubated for 45 mins in presence of ATP by ELISA

Asked: Value lookup for IC50; key = Cn1c(Br)nc(Br)c1C1=CN(c2ncnc3[nH]cnc23)CCS1
Given back: > 200 µM

Asked: Consider the compound shown here: Cn1cncc1C1=CN(c2ncnc3[nH]cnc23)CC[S+]1[O-] (stereo not drawn) What is its recorded IC50?
Given back: > 200 µM

Asked: Which measured IC50 value corresponds to Cn1cncc1C1=CN(c2ncnc3[nH]cnc23)CCS1(=O)=O ?
Given back: > 200 µM
